These measurements were taken from patent US20090227607A1.

biological target: JAK3 (Homo sapiens)
Sequence (P52333 whole entry, species assumed): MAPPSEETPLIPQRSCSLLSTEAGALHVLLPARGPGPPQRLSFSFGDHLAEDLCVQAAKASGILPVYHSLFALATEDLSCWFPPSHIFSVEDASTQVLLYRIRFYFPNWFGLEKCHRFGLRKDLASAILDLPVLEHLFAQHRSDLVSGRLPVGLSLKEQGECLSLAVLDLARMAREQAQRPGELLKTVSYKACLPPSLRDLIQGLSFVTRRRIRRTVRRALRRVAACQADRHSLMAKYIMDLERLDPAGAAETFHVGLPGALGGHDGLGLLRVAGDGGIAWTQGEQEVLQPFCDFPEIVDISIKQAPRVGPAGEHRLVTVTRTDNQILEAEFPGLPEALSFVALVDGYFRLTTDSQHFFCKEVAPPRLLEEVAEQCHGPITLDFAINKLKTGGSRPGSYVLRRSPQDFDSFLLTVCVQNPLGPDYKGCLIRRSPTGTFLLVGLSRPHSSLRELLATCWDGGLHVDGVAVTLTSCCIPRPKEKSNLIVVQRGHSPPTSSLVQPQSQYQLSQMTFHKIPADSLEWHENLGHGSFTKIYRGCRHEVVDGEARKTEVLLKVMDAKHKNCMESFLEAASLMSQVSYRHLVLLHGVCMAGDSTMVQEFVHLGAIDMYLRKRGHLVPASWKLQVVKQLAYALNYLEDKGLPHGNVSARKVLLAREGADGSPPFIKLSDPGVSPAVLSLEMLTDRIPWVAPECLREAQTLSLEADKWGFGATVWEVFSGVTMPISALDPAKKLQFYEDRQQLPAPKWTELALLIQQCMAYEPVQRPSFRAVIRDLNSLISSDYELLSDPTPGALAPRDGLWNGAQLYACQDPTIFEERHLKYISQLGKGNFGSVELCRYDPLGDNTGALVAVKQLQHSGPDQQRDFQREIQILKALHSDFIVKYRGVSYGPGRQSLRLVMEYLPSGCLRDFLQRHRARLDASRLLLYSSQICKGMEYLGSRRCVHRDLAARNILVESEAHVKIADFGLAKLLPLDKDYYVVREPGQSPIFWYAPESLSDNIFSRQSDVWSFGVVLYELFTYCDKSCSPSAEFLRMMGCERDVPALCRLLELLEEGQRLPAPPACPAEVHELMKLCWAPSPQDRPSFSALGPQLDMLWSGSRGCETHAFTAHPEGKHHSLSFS
Some compounds, each annotated with its measured Ki.
measure: Ki

> print(dat)
                                   compound          assaytarget  measure          result
1  CC(C)OCCNC(=O)C(C)n1cc(-c2ncnc3[nH]ccc23)cn1 (stereo not drawn)  JAK3 (Homo sapiens)       Ki  500 to 5000 nM
2  CC(C(=O)NCC(F)(F)F)n1cc(-c2ncnc3[nH]ccc23)cn1 (stereo not drawn)  JAK3 (Homo sapiens)       Ki        < 100 nM
3  O=C(Nc1nc(-c2ncnc3[nH]ccc23)cs1)C1CCCC1O (stereo not drawn)  JAK3 (Homo sapiens)       Ki        < 100 nM
4  Cc1c[nH]c2ncnc(-c3c[nH]c(C(=O)N4C(C)C=CC4C)c3)c12 (stereo not drawn)  JAK3 (Homo sapiens)       Ki   100 to 500 nM
5  O=C(c1cc(-c2ncnc3[nH]ccc23)c[nH]1)N(CC1CCCC1)CC(F)(F)F  JAK3 (Homo sapiens)       Ki   100 to 500 nM
6    O=C(c1ccc(-c2ncnc3[nH]ccc23)o1)N1CCCC1  JAK3 (Homo sapiens)       Ki  500 to 5000 nM
7  CC(C)CN(CCC(F)(F)F)C(=O)c1ccc(-c2ncnc3[nH]ccc23)o1  JAK3 (Homo sapiens)       Ki        < 100 nM
8  N#CCCN(CCC(F)(F)F)C(=O)c1cc(-c2ncnc3[nH]ccc23)co1  JAK3 (Homo sapiens)       Ki   100 to 500 nM
9  CC(=O)N1CCC(C(=O)Nc2nc(-c3ncnc4[nH]ccc34)cs2)CC1  JAK3 (Homo sapiens)       Ki        < 100 nM
